target: benzodiazepine binding site on GABAA receptors; test: In vitro inhibition of 3H-flunitrazepam (3H-FNM) binding; settings: inhibition of specific binding of 3H-FNM (1 nM), cerebral cortex membranes from male Wistar rats, 40 min at 2° C.
ENDPOINT_NAME: IC50 (nM)
Provide the reading as a plain figure in nM.

- SMILES_TEXT: "CC(=O)NCc1ccc2c(c1)ncn2-c1cccc(-c2nccs2)c1"
  UNIT_NAME: "nM"
  IC50: 24
- SMILES_TEXT: "NCc1ccc2c(c1)ncn2-c1cccc(-c2nccs2)c1"
  UNIT_NAME: "nM"
  IC50: 11

Now consider the entry below.
*Q* GET /values?readout=IC50&item= O=CNCc1ccc2c(c1)ncn2-c1cccc(-c2nccs2)c1
*A* 4.8
